- Tested on: Mycosphaerella arachidis
- METHOD: Fungicidal activity against Mycosphaerella arachidis assessed as inhibition of mycelium growth at 50 ug/mL by mycelium growth rate method
- Format: functional
Would you please tag the item Condition met when its inhibition at 50 µg/mL is 20% or above, and Condition not met when it is below?

COMPOUND SMILES	TESTED SYSTEM	GROUP LABEL
CCCCOC(=O)c1cccc2nc3c(N)c([N+](=O)[O-])cc([N+](=O)[O-])c3nc12	Mycosphaerella arachidis	Condition not met
COC(=O)c1cccc2nc3c(N)cccc3nc12	Mycosphaerella arachidis	Condition met
COC(=O)c1cccc2nc3c(S(=O)(=O)c4ccc([N+](=O)[O-])cc4)cccc3nc12	Mycosphaerella arachidis	Condition met
COC(=O)c1cccc2nc3c(N)c([N+](=O)[O-])cc([N+](=O)[O-])c3nc12	Mycosphaerella arachidis	Condition met
CCCCOC(=O)c1cccc2nc3c(N)cccc3nc12	Mycosphaerella arachidis	Condition not met
COC(=O)c1cccc2nc3cc(C(=O)COC(C)=O)ccc3nc12	Mycosphaerella arachidis	Condition not met
COC(=O)c1cccc2nc3cc(C(=O)C(Cl)(Cl)Cl)ccc3nc12	Mycosphaerella arachidis	Condition not met
COC(=O)c1cccc2nc3cc(C(=O)CCCCl)ccc3nc12	Mycosphaerella arachidis	Condition not met
COC(=O)c1cccc2nc3c(NC(=O)CCCCl)c([N+](=O)[O-])ccc3nc12	Mycosphaerella arachidis	Condition met
COC(=O)c1cccc2nc3c(C(=O)c4ccc(Cl)cc4Cl)cccc3nc12	Mycosphaerella arachidis	Condition not met
COC(=O)c1cccc2nc3cc(S(=O)(=O)c4ccc([N+](=O)[O-])cc4)ccc3nc12	Mycosphaerella arachidis	Condition not met
COC(=O)c1cccc2nc3c(C(=O)CCc4ccccc4)cccc3nc12	Mycosphaerella arachidis	Condition not met
CCCOC(=O)c1cccc2nc3cc(N)ccc3nc12	Mycosphaerella arachidis	Condition met
CCCCOC(=O)c1cccc2nc3cc(N)c(OCCCC)cc3nc12	Mycosphaerella arachidis	Condition not met
Nc1cccc2nc3c(C(=O)O)cccc3nc12	Mycosphaerella arachidis	Condition not met
CCCCOC(=O)c1cccc2nc3cc(N)ccc3nc12	Mycosphaerella arachidis	Condition not met
CCCOC(=O)c1cccc2nc3cc(N)c(OCCC)cc3nc12	Mycosphaerella arachidis	Condition met
COC(=O)c1cccc2nc3cc(S(=O)(=O)c4ccc(C)cc4)ccc3nc12	Mycosphaerella arachidis	Condition met
COC(=O)c1cccc2nc3c(C(=O)CCCCl)cccc3nc12	Mycosphaerella arachidis	Condition not met
Nc1ccc2nc3c(C(=O)O)cccc3nc2c1	Mycosphaerella arachidis	Condition not met
CCCOC(=O)c1cccc2nc3c(N)cccc3nc12	Mycosphaerella arachidis	Condition met
CCCCOC(=O)c1cccc2nc3c(C(=O)CCCCl)cccc3nc12	Mycosphaerella arachidis	Condition not met
CCCCOC(=O)c1cccc2nc3cc(OCCCC)c(N)cc3nc12	Mycosphaerella arachidis	Condition not met
